# Tested On: binary-RANKL (L-RANKL, mRANKL mimic) (Rattus norvegicus, UniProt Q9ESE2, D175N)
# Construct: (3) mRANKL (sRANKL-GSGS-sRANKL, rat 159-318 aa); His6-sumo (N)
# Sequence (Q9ESE2 with tags, fused parts or gaps D175N): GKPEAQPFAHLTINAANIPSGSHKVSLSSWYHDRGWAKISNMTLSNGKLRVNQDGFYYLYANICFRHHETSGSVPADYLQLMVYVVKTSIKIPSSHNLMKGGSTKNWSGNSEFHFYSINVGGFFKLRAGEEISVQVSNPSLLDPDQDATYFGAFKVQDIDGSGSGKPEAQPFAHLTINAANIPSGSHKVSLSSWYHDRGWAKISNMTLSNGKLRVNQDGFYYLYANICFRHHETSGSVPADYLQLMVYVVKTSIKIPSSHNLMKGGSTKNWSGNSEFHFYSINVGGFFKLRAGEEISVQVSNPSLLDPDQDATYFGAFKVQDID
# Test Summary: Isothermal titration calorimetry (ITC) with binary-RANKL
# Condition Parameters: 25 °C, PBS 0.8% DMSO; read-out: ITC KD with binary-RANKL (printed +mRANKL in Fig. 3a)
Quantity Measured: pKd
The scale used: pKd is minus the common logarithm of the concentration in molar units.

IN: Specify measured pKd for CC(=O)/C(=N\Nc1ccccc1C(=O)O)C(=O)Nc1ccccn1 .
OUT: 3.91

* * *

# Tested on: RAW264.7 cells
# Test Summary: In vitro cytotoxicity assay (MTT)
# Type: cell-based, mouse
# Condition Parameters: RAW264.7, MTT
Answer each item with its documented CC50.
Output spec: scalar in µM, unitless text.

IN: Assign CC50 to the following record: CC(=O)C(=NNc1ccccc1C(=O)O)C(=O)N1CCc2ccccc2C1
OUT: 82.1

IN: Report measured CC50; entry is CCOC(=O)c1sc(NC(=O)C(=NNc2cccc(C(=O)O)c2)C(C)=O)nc1C
OUT: 33.9

IN: Item CCOC(=O)c1sc(NC(=O)C(=NNc2c(C(=O)O)cccc2C(=O)O)C(C)=O)nc1C : provide CC50
OUT: 77.9

This collection of values is drawn from paper PMC9468151.
